Item-by-item account of IC50
assay: Inhibition of beef heart mitochondrial NADH oxidase assessed per mg of protein; set-up: species or system Bos taurus; conditions: read-out: I50
Hi! Could you send only the number? It should be in nmol/mg, unit omitted.

For orientation, consider the following solved cases.
C[C@@H]1O[C@@H](OC[C@H]2O[C@@H](Oc3c(-c4ccc(O)c(O)c4)oc4cc(O)cc(O)c4c3=O)[C@H](O)[C@@H](O)[C@@H]2O)[C@H](O)[C@H](O)[C@H]1O [RUTIN] ... 1890
O=C1CC(c2ccccc2)Oc2ccccc21 (centres undefined) [FLAVANONE] ... 310
O=c1cc(-c2ccccc2)oc2cc(O)ccc12 [7-HYDROXYFLAVONE] ... 1400

Please turn your attention to the following entry.
## Input Param item = O=c1cc(-c2ccccc2)oc2ccccc12 [FLAVONE] ; retrieve measured IC50.
## Output 240
